read-out: Monocyte Chemoattractant Protein-1 (MCP1), CCL2 (gene 6347); assay: BSK_3C_MCP1: BioMAP Diversity Plus: 3C Assay for Monocyte Chemoattractant Protein-1 (MCP1) Biomarker Activity (AID 2283017); conditions: primary human endothelial cells (HUVEC); actives raise or lower the signal
Calls of active or inactive are those of the source. How the source made its calls: active means hit-call score of the fitted dose curve at least 0.9, where 1 is the maximum; inactive means score below 0.9.
// one of active, inactive, no free text

Each compound tested received a call. Report the one for N#Cc1c(-c2ccc(Cl)cc2)[nH]c(C(F)(F)F)c1Br .
active

Try this compound too: CCCCN(CCCC)N=O
inactive

Try this compound too: O=C(O)C(Cl)Cl
inactive

Try this compound too: Nc1cc2c3c(c1)C(c1ccccc1)=N[C@@H](NC(=O)c1cccnc1)C(=O)N3CC2
inactive

Try this compound too: CCN(CC)c1ccccc1
inactive

Try this compound too: O=C(O)C=CC(F)(C(F)(F)F)C(F)(F)F
inactive

Try this compound too: ClC1=C(Cl)C2(Cl)C3C(Cl)C(Cl)CC3C1(Cl)C2(Cl)Cl (configuration not stated)
active

###

target: Heat shock factor protein 1 (Homo sapiens); test: ATG_HSE_CIS: Attagene CIS-FACTORIAL HepG2 Assay for human Heat Shock Transcription Factor 1 (HSE) (AID 2282953); settings: HepG2 HSE cis-reporter, Attagene RNA transcription; actives raise or lower the signal
Active and inactive are the calls of the source. The calls were made as follows: active = hit-call score of the fitted dose curve at least 0.9, where 1 is the maximum; inactive = score below 0.9.
// one of active, inactive, no free text

Each compound tested received a call. Report the one for Cc1cccc(N)c1 .
inactive

Try this compound too: CCCCC(CC)COC(=O)c1c(Br)c(Br)c(Br)c(Br)c1C(=O)OCC(CC)CCCC (stereo not drawn)
inactive

Try this compound too: CC(C)(C)N(NC(=O)c1ccc(Cl)cc1)C(=O)c1ccccc1
inactive

Try this compound too: CCCCOCCOP(=O)(OCCOCCCC)OCCOCCCC
inactive

Try this compound too: Nc1ccc2ccccc2c1
inactive

Try this compound too: CC(C)Nc1ccc(Nc2ccccc2)cc1
active

Try this compound too: CC(=O)c1ccc(-c2ccccc2)cc1
inactive

Try this compound too: CC(Cl)(Cl)C(=O)O
inactive

Try this compound too: CCCCN(CCCC)N=O
inactive

Try this compound too: O=P(OCC(Br)CBr)(OCC(Br)CBr)OCC(Br)CBr (stereo not drawn)
inactive

Try this compound too: Nc1cc2c3c(c1)C(c1ccccc1)=N[C@@H](NC(=O)c1cccnc1)C(=O)N3CC2
inactive

Try this compound too: N#Cc1cc([N+](=O)[O-])ccc1N
inactive

Try this compound too: c1nc[nH]n1
inactive

Try this compound too: C=C(C)C(=O)OCC1CO1 (stereo not drawn)
inactive

Try this compound too: ClC(Cl)c1ccccc1
inactive

Try this compound too: ClC1=C(Cl)C2(Cl)C3C(Cl)C(Cl)CC3C1(Cl)C2(Cl)Cl (stereo not drawn)
active

Try this compound too: Cc1ccc(O)cc1C
inactive

Try this compound too: CSC(C)(C)C=NO
inactive

Try this compound too: CCOP(=O)(O)C(N)=O
inactive

Try this compound too: CCOP(=S)(NC(C)C)Oc1ccccc1C(=O)OC(C)C (stereo not drawn)
inactive

Try this compound too: CCCCCCCc1ccc(O)cc1
inactive

Try this compound too: Oc1ccccc1Br
inactive

Try this compound too: CC(Cc1ccc(OCC(=O)O)cc1)NCC(O)c1csc(C(F)(F)F)n1 (stereo not drawn)
inactive
